# Test system: DIPGX7 (H3.3 K27M diffuse intrinsic pontine glioma line)
# experiment_notes: growth inhibition (% activity, log2 RLU normalised to DMSO / staurosporine); higher = more growth inhibition
# assay_context: 33 µM
recorded_endpoint: growth inhibition
Form entry: enter the amount, then its unit.

Observe how each entry below is paired with its result.
Give the reported value of growth inhibition for this record: `N=c1nc(N2CCCCC2)cc(N)n1O` 0.732%

// fetch growth inhibition given entry `CCS(=O)(=O)CCn1c([N+](=O)[O-])cnc1C` -1.24%

Return growth inhibition for the following molecule: C[C@H]1O[C@H](O[C@H]2[C@H](O)[C@@H](O)[C@@H](O[C@H]3[C@H](O)[C@@H](O)C(O)O[C@@H]3CO)O[C@@H]2CO)[C@H](O)[C@@H](O)[C@@H]1N[C@H]1C=C(CO)[C@@H](O)[C@H](O)[C@H]1O (stereo partly drawn) -0.631%

Give reported growth inhibition value for `CC[C@H](C)C[C@H](C)CCCCCCCCC(=O)N[C@H]1C[C@@H](O)[C@@H](NCCN)NC(=O)[C@@H]2[C@@H](O)CCN2C(=O)[C@H]([C@H](O)CCN)NC(=O)[C@H]([C@H](O)[C@@H](O)c2ccc(O)cc2)NC(=O)[C@@H]2C[C@@H](O)CN2C(=O)[C@H]([C@@H](C)O)NC1=O` 3.78%

Write down growth inhibition measured for item `Nc1nc2n[nH]nc2c(=O)[nH]1` 14.4%

// input: 2 molecules below; output: growth inhibition for each
1. NC1CCN(c2c(F)cc3c(=O)c(C(=O)O)cn(C4CC4)c3c2Cl)C1 (stereo not drawn)
2. CN1CCC(=C2c3ccccc3CCc3sccc32)CC1

["1.13%", "1.97%"]

Look up and report measured growth inhibition for this entry: `O=c1oc2cc(O)ccc2s1` 6.79%
